# Test system: Vero E6 infected with SARS-CoV-2
# Procedure Details: morphology score (similarity to uninfected cells); higher = more like uninfected cells
# Setup Conditions: 24 h
Result Type: morphology score

compound="Cn1cc(C(=O)OCC2CCN(CCNS(C)(=O)=O)CC2)c2ccccc21 (10 µM)" result_type="morphology score" experimental_value=0.228
compound="COC(=O)C1=C(C)NC(C)=C(C(=O)OCC(C)C)C1c1ccccc1[N+](=O)[O-] (stereo not drawn) [nisoldipine] (0.833333 µM)" result_type="morphology score" experimental_value=-0.0369
compound="O=C(Nc1cc(C(F)(F)F)cc(C(F)(F)F)c1)Nc1c(Br)cc(Br)cc1-c1nnn[nH]1 (10 µM)" result_type="morphology score" experimental_value=0.192

###

Quick reference: inhibition of SARS-CoV-2 cytopathic effect of the listed items.
# Tested on: Vero E6 infected with SARS-CoV-2
# Procedure Details: inhibition of SARS-CoV-2 cytopathic effect; higher = more antiviral protection, active = above 15
# Setup Conditions: 10000 nM; 48 h
Result Type: inhibition of SARS-CoV-2 cytopathic effect

compound="Cc1nnc(-c2ccc3occ(-c4ccc([S+](C)[O-])cc4)c3c2)o1 (stereo unspecified)" tgt="Vero E6 infected with SARS-CoV-2" experimental_value="8.77% (inactive)"
compound=CC(C)C(=O)Nc1ncc(-c2cc(C(F)F)nn2-c2c(Cl)cccc2Cl)s1 tgt="Vero E6 infected with SARS-CoV-2" experimental_value="-5.83% (inactive)"
compound="Cc1cc(C(C)(C)C)cc(C)c1CC1=NCCN1 [xylometazoline]" tgt="Vero E6 infected with SARS-CoV-2" experimental_value="-6.68% (inactive)"
compound="CCOC(=O)c1ccc(N)cc1 [benzocaine]" tgt="Vero E6 infected with SARS-CoV-2" experimental_value="-1.78% (inactive)"
compound="CCCNCC(O)COc1ccccc1C(=O)CCc1ccccc1 (stereo unspecified) [propafenone]" tgt="Vero E6 infected with SARS-CoV-2" experimental_value="-0.5% (inactive)"
compound=O=C1NC(=O)C(c2ccccc2[N+](=O)[O-])=C1Nc1ccc(O)c(Cl)c1 tgt="Vero E6 infected with SARS-CoV-2" experimental_value="6.31% (inactive)"
compound="Nc1nc2c(ncn2COC(CO)CO)c(=O)[nH]1 [ganciclovir]" tgt="Vero E6 infected with SARS-CoV-2" experimental_value="-1.71% (inactive)"
compound=Cc1nn(-c2ccccc2)c(C)c1/C=N/N1CCN(Cc2ccccc2)CC1 tgt="Vero E6 infected with SARS-CoV-2" experimental_value="-0.87% (inactive)"
compound=CC(C)[C@@H](CS(=O)(=O)C(C)C)N1C(=O)[C@@](C)(CC(=O)O)C[C@H](c2cccc(Cl)c2)[C@H]1c1ccc(Cl)cc1 tgt="Vero E6 infected with SARS-CoV-2" experimental_value="4.3% (inactive)"
compound="CC/C(=C(/CC)c1ccc(OP(=O)(O)O)cc1)c1ccc(OP(=O)(O)O)cc1 [fosfestrol]" tgt="Vero E6 infected with SARS-CoV-2" experimental_value="-0.17% (inactive)"
compound="O=C1NC(O)CCN1[C@@H]1O[C@H](CO)[C@@H](O)[C@H]1O (stereo partly specified) [tetrahydrouridine]" tgt="Vero E6 infected with SARS-CoV-2" experimental_value="-0.83% (inactive)"

###

Quick reference: inhibition of SARS-CoV-2 cytopathic effect of the listed items.
# Test system: Vero E6 infected with SARS-CoV-2
# Procedure Details: inhibition of SARS-CoV-2 cytopathic effect; higher = more antiviral protection, active = above 15
# Setup Conditions: 833.33 nM; 48 h
Result Type: inhibition of SARS-CoV-2 cytopathic effect (%)

compound="COc1cc([C@@H]2c3cc4c(cc3[C@@H](O[C@@H]3O[C@@H]5CO[C@@H](C)O[C@H]5[C@H](O)[C@H]3O)[C@H]3COC(=O)[C@H]23)OCO4)cc(OC)c1O [etoposide]" experimental_value=-2.82
compound="O=c1ccc2ccccc2o1 [coumarin]" experimental_value=1.9
compound="C[C@@H]1C(=O)O[C@H]2C[C@@]34[C@H]5C[C@@H](C(C)(C)C)[C@]36[C@@H](OC(=O)[C@@H]6O)O[C@@]4(C(=O)O5)[C@]21O [Ginkgolide A]" experimental_value=1.3
compound=COc1cccc(Nc2c(C(N)=O)cnc3c(C)cc(S(=O)(=O)c4cccc(C(=O)N(C)C)c4)cc23)c1 experimental_value=3.01
compound="c1ccc(-c2ccc(C(c3ccccc3)n3ccnc3)cc2)cc1 (stereo unspecified) [bifonazole]" experimental_value=-11.6
compound="Nc1nc(O)c2ncn(CCC(CO)CO)c2n1 [penciclovir]" experimental_value=0.81
compound="CCn1c(O)nnc1-c1ccc(Cl)cc1 [5-(4chlorophenyl)-4-ethyl-2,4-dihydro-3H-1,2,4-triazol-3-one]" experimental_value=0.79
compound="CC(C)(C)c1cc(NC(=O)Nc2ccc(-c3cn4c(n3)sc3cc(OCCN5CCOCC5)ccc34)cc2)no1 [quizartinib]" experimental_value=-4.72
compound="CNC(=O)Oc1ccccc1OC(C)C [propoxur]" experimental_value=2.09
compound=CN(Cc1ccccc1)C(=O)[C@H](Cc1ccc2ccccc2c1)NC(=O)[C@@H]1C[C@@H](O)CN1C(=O)c1cn(C)c2ccccc12 experimental_value=1.69
compound=O=C(NCC(=O)N1CC[C@H](N[C@H]2CC[C@@](O)(c3ccc(-c4ncccn4)cn3)CC2)C1)c1cccc(C(F)(F)F)c1 experimental_value=-0.75
